# Protocol summary: Drug uptake in mouse blood administered as rectal dose and measured after 1 hrs
# Assay type: ADME, tissue-based
# Conditions: route rec, read-out: Ct
Parameter measured: concentration at 1 h (ng/mL)
Numbers only, in ng/mL.

If you can, please state the reported concentration at 1 h value of O=C(O)CCCCCCN1C(=O)CC[C@@H]1/C=C/[C@@H](O)C(F)(F)c1ccccc1 . 35.8

* * *

Assign t1/2 to each entry below.
# Protocol summary: Prodrug conversion in mouse gut assessed as 7(R)-(2-((R,E)-4,4-difluoro-3-hydroxy-4-phenyl)but-1-en-1-yl)-5-oxopyrrolidin-1-yl)heptanoic acid formation by measuring half-life at 100 uM
# Format: ADME, tissue-based

If you can, please state the reported t1/2 value of CCCC(O[C@H](/C=C/[C@H]1CCC(=O)N1CCCCCCC(=O)OCC)C(F)(F)c1ccccc1)OP(=O)(O)O (some centres undefined) . < 5 min

If you can, please state the reported t1/2 value of CCOC(=O)CCCCCCN1C(=O)CC[C@@H]1/C=C/[C@@H](OC(C)OP(=O)(O)O)C(F)(F)c1ccccc1 (some centres undefined) . < 5 min

If you can, please state the reported t1/2 value of O=C(O)CCCCCCN1C(=O)CC[C@@H]1/C=C/[C@@H](OCOP(=O)(O)O)C(F)(F)c1ccccc1 . < 5 min

Turning to the following compound.
If you can, please state the reported t1/2 value of CCOC(=O)CCCCCCN1C(=O)CC[C@@H]1/C=C/[C@@H](OC(OP(=O)(O)O)c1ccccc1)C(F)(F)c1ccccc1 (some centres undefined) . 40 min
